Source listed as ChEMBL document CHEMBL1123529.

Target: Substance-P receptor (Rattus norvegicus)
Assay: Antagonistic activity against Substance P(6-11) receptor in rat spinal cord at concentration of 50 uM.
Where a SMILES comes first, the peptide text is derived from it. [ ]: non-standard residue; d: D form. The star is where a group is joined. Cbz = O=C(OCc1ccccc1)*
test_readout: Change in amplitude response (%)
Output spec: scalar in %, unitless text.

Sample records with Change in amplitude response:
COC(=O)[C@H](CCSC)NC(=O)[C@@H](NC(=O)[C@H](NC(=O)[C@H](Cc1ccccc1)NC(=O)[C@H](Cc1ccccc1)NC(=O)[C@H](CCC(N)=O)NC(=O)[C@H](CCC(N)=O)NC(=O)[C@@H]1CCCN1C(=O)[C@H](CCCCNC(=O)OCc1ccccc1)NC(=O)[C@@H]1CCCN1C(=O)[C@H](CCCN=C(N)N)NC(=O)OCc1ccccc1)C(C)C)C(C)C; -22
COC(=O)[C@@H](CCSC)NC(=O)[C@H](CC(C)C)NC(=O)CNC(=O)[C@H](Cc1ccccc1)NC(=O)[C@H](Cc1ccccc1)NC(=O)[C@@H](NC(=O)[C@H](NC(=O)[C@@H]1CCCN1C(=O)[C@H](CCCCNC(=O)OCc1ccccc1)NC(=O)[C@@H]1CCCN1C(=O)[C@H](CCCN=C(N)N)NC(=O)OCc1ccccc1)C(C)C)C(C)C; -21
COC(=O)[C@H](CCSC)NC(=O)[C@@H]1CCCN1C(=O)[C@H]1CCCN1C(=O)[C@H](Cc1ccccc1)NC(=O)[C@H](Cc1ccccc1)NC(=O)[C@H](CCC(N)=O)NC(=O)[C@H](CCC(N)=O)NC(=O)[C@@H]1CCCN1C(=O)[C@H](CCCCNC(=O)OCc1ccccc1)NC(=O)[C@@H]1CCCN1C(=O)[C@H](CCCN=C(N)N)NC(=O)OCc1ccccc1; -86
COC(=O)[C@H](CCSC)NC(=O)[C@@H]1CCCN1C(=O)[C@H]1CCCN1C(=O)[C@H](Cc1ccccc1)NC(=O)[C@H](Cc1ccccc1)NC(=O)[C@H](CCC(N)=O)NC(=O)[C@H](CCC(N)=O)NC(=O)[C@@H]1CCCN1C(=O)[C@@H](CCCCNC(=O)OCc1ccccc1)NC(=O)[C@H]1CCCN1C(=O)[C@@H](CCCN=C(N)N)NC(=O)OCc1ccccc1; -100

Please look at the following compound next.
Task item: For COC(=O)[C@@H](CCSC)NC(=O)[C@H](CC(C)C)NC(=O)CNC(=O)[C@@H](Cc1c[nH]c2ccccc12)NC(=O)[C@@H](Cc1c[nH]c2ccccc12)NC(=O)[C@H](CCC(N)=O)NC(=O)[C@H](CCC(N)=O)NC(=O)[C@@H]1CCCN1C(=O)[C@H](CCCCNC(=O)OCc1ccccc1)NC(=O)[C@@H]1CCCN1C(=O)[C@H](CCCN=C(N)N)NC(=O)OCc1ccccc1 (Cbz-RPK(Cbz)PQQ[dW][dW]GL[dM]-OMe) , write its Change in amplitude response.
Reply: -75
